target: Mannose-6-phosphate isomerase (Homo sapiens) (UniProt P34949); experiment: MPI inhibition at elevated mannose 6-phosphate – biochemical, fluorescence intensity, high mannose 6-phosphate, primary screen (AID 1220); conditions: recombinant PMI enzyme, coupled fluorescence intensity; at 20 µM; stronger effect = higher value
Sequence (P34949 whole entry, looked up): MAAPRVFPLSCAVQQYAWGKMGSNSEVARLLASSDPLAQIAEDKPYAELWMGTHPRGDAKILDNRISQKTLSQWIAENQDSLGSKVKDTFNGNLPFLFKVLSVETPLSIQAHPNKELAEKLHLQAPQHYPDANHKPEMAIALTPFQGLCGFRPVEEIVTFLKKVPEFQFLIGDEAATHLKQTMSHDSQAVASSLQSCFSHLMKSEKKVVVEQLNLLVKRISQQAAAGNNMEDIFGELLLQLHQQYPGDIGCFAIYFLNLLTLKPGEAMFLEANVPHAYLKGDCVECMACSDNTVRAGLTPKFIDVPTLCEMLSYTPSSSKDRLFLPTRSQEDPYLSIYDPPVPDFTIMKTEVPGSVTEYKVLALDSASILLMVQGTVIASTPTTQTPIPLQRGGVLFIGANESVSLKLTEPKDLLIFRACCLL
Screen size: about 190,000 compounds; about 1,300 (0.68%) were called active. For the sample, actives were picked, then their nearest neighbours and some compounds at random.
recorded metric: inhibition (%)
Quick reminder: number only, in %, skip the unit.

// inhibition value for Cc1ccnc(N2C3CCC2CC(O)(c2ccccc2)C3)n1 (stereo unspecified) : -10.5

// inhibition value for `O=c1c2ccccc2c2ccccc2c(=O)n1-c1ccccc1` : -1.1

// inhibition value for `O=C(N/N=C/c1ccc(Br)o1)c1cccnc1` : 5.3

// inhibition value for Cc1cc(C)nc(NS(=O)(=O)c2ccc(NC(=O)C3COc4ccccc4O3)cc2)n1 (stereo unspecified) : 54.1

// inhibition value for `Cc1cc(=O)c2ccccc2s1` : 0.5

// inhibition value for `CN(C)S(=O)(=O)c1cccc(N2C(=O)CC3(CCCCC3)CC2=O)c1` : 0.9

// inhibition value for `Oc1ccc2oc3c(c2c1/C=N/n1cnnc1)CCCC3` : 9.3

// inhibition value for Cc1ccnc(NS(=O)(=O)c2ccc(NC(=O)C3COc4ccccc4O3)cc2)n1 (stereo unspecified) : -9.4

// inhibition value for `Cc1ccccc1N=Cc1c(O)n(-c2nccs2)c(=O)c2ccccc12` : 16.2

// inhibition value for `O=C1CCCN1c1nccs1` : -6.6

// inhibition value for `Cc1ccc(C(=O)NC(=S)Nc2cccc(NC(=O)c3ccccc3)c2)cc1[N+](=O)[O-]` : 0.9

###

target: Mannose-6-phosphate isomerase (Homo sapiens) (UniProt P34949); test: MPI inhibition at elevated mannose 6-phosphate – biochemical, fluorescence intensity, high mannose 6-phosphate, primary screen (AID 1220); conditions: recombinant PMI enzyme, coupled fluorescence intensity; at 20 µM; stronger effect = higher value
About 1,300 (0.68%) of roughly 190,000 compounds were called active. Shown is part of a subset that was picked to be rich in actives.
recorded metric: inhibition (%)
Quick reminder: number only, in %, skip the unit.

// inhibition value for CCC(NC(C)C)C(O)c1ccc(O)c(O)c1 (stereo not drawn) : 61.2

// inhibition value for CCC(NC(C)C)C(O)c1ccc(O)c2[nH]c(=O)ccc12 (stereo not drawn) : 11.5

// inhibition value for `CC(=O)Nc1ccc(NC2=C/C(=N/S(=O)(=O)c3cccs3)c3ccccc3C2=O)cc1` : 54.1

// inhibition value for `COC(=O)c1ccccc1NC1=C/C(=N\S(=O)(=O)c2cccs2)c2ccccc2C1=O` : -25.4

// inhibition value for `CNC[C@H](O)c1ccc(O)c(O)c1` : 59

// inhibition value for `Cc1ccc(NC2=C/C(=N/S(=O)(=O)c3cccs3)c3ccccc3C2=O)cc1` : 47.9

// inhibition value for `O=C(N=Nc1ccc(NOC(=O)c2ccccc2Br)cc1)c1ccccc1O` : 65.2

// inhibition value for `Cc1ccc(C(=O)ONc2ccc(N=NC(=O)c3ccccc3O)cc2)cc1` : -5.4

// inhibition value for CCCCCC(=O)NC(CC(=O)OC)c1ccc2c(c1)OCO2 (stereo not drawn) : 2.2

// inhibition value for `CC(/C=C/c1ccccc1)=N/NC(=O)CCC(=O)Nc1ccccc1C` : -55.7

// inhibition value for `Cc1cccc(C(=O)NC2CCN(CC(=O)NCc3cccs3)CC2)c1` : -0.6

// inhibition value for CCC(C)c1ccc(O)c(N)c1 (stereo not drawn) : 31.5

// inhibition value for `COc1ccc(/C=C2/CCc3ccccc3C2=O)cc1OC` : 29.2

// inhibition value for `Cc1ccc(Cl)cc1NC1=C/C(=N\S(=O)(=O)c2cccs2)c2ccccc2C1=O` : 16.4

// inhibition value for `COc1ccc2c(c1)CC/C(=C\C=C\c1ccccc1OC)C2=O` : 53.3

// inhibition value for `O=C(NCC(=O)N1CCN(S(=O)(=O)c2cccs2)CC1)c1ccc(Cl)cc1` : 5.3

// inhibition value for `COc1ccc([C@H](C)NC[C@H](O)c2ccc(O)c(NC=O)c2)cc1` : 10.4

// inhibition value for `COc1ccc2c(c1)CC/C(=C\C=C\c1ccccc1)C2=O` : 52.8

// inhibition value for Oc1c(C(Nc2nc3ccccc3s2)c2ccco2)ccc2cccnc12 (stereo not drawn) : 34.8

// inhibition value for `O=C1C(Nc2ccc(O)cc2)=C/C(=N/S(=O)(=O)c2cccs2)c2ccccc21` : 47.6

// inhibition value for `O=C(ONc1ccc(N=NC(=O)c2ccccc2O)cc1)c1ccccc1` : 22.9

// inhibition value for `Cc1ccc(CSC2=NCCN2C(=O)C2CC2)cc1` : -1.1

// inhibition value for `CNC[C@H](O)c1cccc(O)c1` : -2.7
